assay.notes: Cellular viability qHTS for adrenocortical cancer (ACC) cell line SW-13 (AID 1963989); further: potency means the concentration at half of the fitted maximal effect; nearly all actives have a fitted effect of over 65% in size
experimental.conditions: SW-13 ACC cells viability, CellTiter-Glo, 48 h
Records with an inconclusive call do not appear. The source made the active and inactive calls. The call rests on the fitted dose curve; in most records, active means well fitted cell-killing curve with a large enough effect; inconclusive means small, poorly fitted or top-dose-only effect; inactive means flat fitted curve, though single readings scatter.
parameter: Potency

Would you please look over these solved cases?
smiles_representation=Nc1cc(C(F)(F)F)c(-c2nc(N3CCOCC3)nc(N3CCOCC3)n2)cn1 parameter=Potency endpoint_value="11.2 µM (active)"
smiles_representation=O=C(CCCCCCC(=O)Nc1cccnc1)NO parameter=Potency endpoint_value="12.6 µM (active)"
smiles_representation=O=C(Nc1ccccc1-c1cn2c(CN3CCNCC3)csc2n1)c1cnc2ccccc2n1 parameter=Potency endpoint_value="3.55 µM (active)"
smiles_representation=O=C(NC1CCNCC1)c1[nH]ncc1NC(=O)c1c(Cl)cccc1Cl parameter=Potency endpoint_value="1.12 µM (active)"
smiles_representation=COc1cc2c(Oc3ccc(-c4cnc(Nc5ccc(F)cc5)n(C)c4=O)cc3F)ccnc2cc1OCCCN1CCOCC1 parameter=Potency endpoint_value="15.8 µM (active)"

Query block: Request the reported Potency associated with `C[n+]1cc2c3c(ccc2c2ccc4cc5c(cc4c21)OCO5)OCO3`
Result block: 2.24 µM (active)

Query block: Request the reported Potency associated with `Cc1cnc(Nc2ccc(OCCN3CCCC3)cc2)nc1Nc1cccc(S(=O)(=O)NC(C)(C)C)c1`
Result block: 12.6 µM (active)

Query block: Request the reported Potency associated with `Nc1cc(C(F)(F)F)c(-c2cc(N3CCOCC3)nc(N3CCOCC3)n2)cn1`
Result block: 2 µM (active)

Query block: Request the reported Potency associated with `C=C1C[C@H]2C=Nc3cc(OCCCOc4cc5c(cc4OC)C(=O)N4CC(=C)C[C@H]4C=N5)c(OC)cc3C(=O)N2C1`
Result block: 0.01 µM (active)
